Source of measurements: paper PMC10450872

- TEST_TARGET: hKOR (Homo sapiens, UniProt P41145)
- Construct: β-galactosidase enzyme fragment for EFC (ProLink tag of the PathHunter system; name and presence on the receptor from own knowledge)
- Sequence (P41145 whole entry, the tested form may be a part): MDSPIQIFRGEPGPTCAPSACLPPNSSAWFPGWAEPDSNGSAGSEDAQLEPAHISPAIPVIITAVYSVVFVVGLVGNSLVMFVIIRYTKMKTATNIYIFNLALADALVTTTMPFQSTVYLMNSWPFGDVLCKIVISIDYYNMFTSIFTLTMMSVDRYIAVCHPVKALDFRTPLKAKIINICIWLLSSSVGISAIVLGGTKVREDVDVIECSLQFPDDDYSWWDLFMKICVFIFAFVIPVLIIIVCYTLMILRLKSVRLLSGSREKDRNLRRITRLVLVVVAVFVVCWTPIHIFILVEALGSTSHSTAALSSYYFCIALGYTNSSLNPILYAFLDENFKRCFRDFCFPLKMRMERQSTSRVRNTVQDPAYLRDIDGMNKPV
- ASSAY_SUMMARY: cell-based
- CONDITION_CONTEXT: βarrestin2 pEC50
MEASURED_QUANTITY: log10(EC50) (log10 of the value in nM)
Heads up, the numbers here are log10 of EC50 in nM units.

Bench note: what log10(EC50) did COC(=O)C1CC(OC(C)=O)C(=O)C2C3CC(c4ccoc4)CC(=NO)C3CCC12C (centres unmarked) show?
1.11

Tell me the measured log10(EC50) of COC(=O)[C@@H]1C[C@H](OC(C)=O)C(=O)[C@@H]2[C@H]3C[C@@H](c4cccc(O)c4)CC(=O)[C@@H]3CC[C@]21C [22a] , please.
3.77

Given CON=C1CC(c2ccccc2)CC2C1CCC1(C)C(C(=O)OC)CC(OC(C)=O)C(=O)C21 (centres unmarked) , state its recorded log10(EC50).
2.39

Value lookup for log10(EC50); key = COC(=O)[C@@H]1C[C@H](OC(C)=O)C(=O)[C@@H]2[C@H]3C[C@H](c4ccccc4)CC(=O)[C@@H]3CC[C@]21C [24b]
2.95

Using the record for `COC(=O)[C@@H]1C[C@H](OC(C)=O)C(=O)[C@@H]2[C@H]3C[C@@H](c4ccc(C)cc4)CC(=O)[C@@H]3CC[C@]21C` , report its log10(EC50).
3.27

Suppose we examine the compound `COC(=O)[C@@H]1C[C@H](OC(C)=O)C(=O)[C@@H]2[C@H]3C[C@@H](c4ccsc4)CC(=O)[C@@H]3CC[C@]21C` ; what log10(EC50) value has been reported?
1.86

Need log10(EC50) of `COC(=O)[C@@H]1C[C@H](OC(C)=O)C(=O)[C@@H]2[C@H]3C[C@@H](Sc4ccccc4)CC(=O)[C@@H]3CC[C@]21C` , thanks.
3.63

Give the measured log10(EC50) of COC(=O)C1CC(OC(C)=O)C(=O)C2C3CC(c4ccoc4)CC(O)C3CCC12C (centres unmarked) [41b] .
1.15

# lookup: log10(EC50) of `COC(=O)[C@@H]1C[C@H](OC(C)=O)C(=O)[C@@H]2[C@H]3C[C@@H](c4cccc(Cl)c4)CC(=O)[C@@H]3CC[C@]21C`
2.80

Consider the compound `COC(=O)[C@@H]1C[C@H](OC(C)=O)C(=O)[C@@H]2[C@H]3C[C@@H](c4coc5ccccc45)CC(=O)[C@@H]3CC[C@]21C` and give its measured log10(EC50).
3.37

Quick check: log10(EC50) of C#CC1(O)CC(c2ccccc2)CC2C1CCC1(C)C(C(=O)OC)CC(OC(C)=O)C(=O)C21 (centres unmarked) [40b] ?
2.90

====

- TEST_TARGET: hKOR (Homo sapiens)
- Construct: β-galactosidase enzyme fragment for EFC (ProLink tag of the PathHunter system; name and presence on the receptor from own knowledge); host or cells: U2OS-β-arrestin2-EFC-hKOR (PathHunter) cells
- Type: cell-based
Entry class follows ΔΔLogτ/KA (cAMP/βarr2): bottom bin: < 0.3; middle bin: ≥ 0.3 and < 0.8; top bin: ≥ 0.8

Which band does COC(=O)[C@@H]1C[C@H](OC(C)=O)C(=O)[C@@H]2[C@H]3C[C@@H](c4cccc(Cl)c4)CC(=O)[C@@H]3CC[C@]21C [compound 31] fall in?
middle bin

Input COC(=O)C1CC(OC(C)=O)C(=O)C2C3CC(c4ccoc4)CC(=NO)C3CCC12C (stereo not drawn) [compound 36] ; output its category
middle bin

Lab note: which band did COC(=O)[C@@H]1C[C@H](OC(C)=O)C(=O)[C@@H]2[C@H]3C[C@@H](c4ccc(Cl)cc4)CC(=O)[C@@H]3CC[C@]21C [compound 29] land in?
middle bin

Which ΔΔLogτ/KA (cAMP/βarr2) category applies to C#CC1(O)CC(c2ccccc2)CC2C1CCC1(C)C(C(=O)OC)CC(OC(C)=O)C(=O)C21 (stereo not drawn) [40a] here?
bottom bin

For this compound, which bin applies? COC(=O)C1CC(OC(C)=O)C(=O)C2C3CC(c4ccoc4)CC(O)C3CCC12C (stereo not drawn) [41b]
middle bin

Field: class (ΔΔLogτ/KA (cAMP/βarr2)) — entry: COC(=O)[C@@H]1C[C@H](OC(C)=O)C(=O)[C@@H]2[C@H]3C[C@@H](c4ccsc4)CC(=O)[C@@H]3CC[C@]21C [compound 19]
top bin

Which bin, given its ΔΔLogτ/KA (cAMP/βarr2), does COC(=O)C1CC(OC(C)=O)C(=O)C2C3CC(c4ccccc4)CC(=NO)C3CCC12C (stereo not drawn) [compound 37] occupy?
bottom bin

Class for COC(=O)[C@@H]1C[C@H](OC(C)=O)C(=O)[C@@H]2[C@H]3C[C@@H](c4ccncc4)CC(=O)[C@@H]3CC[C@]21C [compound 21] ?
top bin
